test system: Leptinatarsa decomlineata; assay: Biological activity on Leptinatarsa decomlineata (Coledptera), 4-day old larvae; type: in vivo; details: 0.1 permill.; 48 hours after treatment
Below: a set of entries, each annotated with reported percentage of reduction of the infestation (percentage death rate), Leptinot D..
Please give a number only; it is taken to be in %.

Look over these answered cases.
>>> recordedvalue("COP(=S)(OC)Oc1cc(Cl)nn1-c1ccccc1 [Compound 1]")
100
>>> recordedvalue("COP(=S)(OC)Oc1cc(Cl)nn1C(C)C [Compound 4]")
100

State percentage of reduction of the infestation (percentage death rate), Leptinot D. (Leptinatarsa decomlineata) of CCOP(=S)(OCC)Oc1cc(Cl)n(-c2ccc([N+](=O)[O-])cc2)n1 [Compound 52] . 37

State percentage of reduction of the infestation (percentage death rate), Leptinot D. (Leptinatarsa decomlineata) of CCOP(=S)(OC)Oc1cc(Cl)nn1C (stereo not drawn) [Compound 23] . 100

State percentage of reduction of the infestation (percentage death rate), Leptinot D. (Leptinatarsa decomlineata) of CCn1nc(Cl)cc1OP(=S)(OC)OC [Compound 21] . 100
